Test system: NCI/ADR-RES ovarian
Assay: NCI-60 one-dose screen, 48 h
Conditions: 10 µM unless noted
The panel holds about 83,000 compounds, 20% with a hit somewhere; the sample as a whole holds those more often. Activity calls are given as the source filed them. How the source made its calls: active means growth percent below 10; inactive means the rest.
Respond using exactly one of the listed classes: 1 (yes) (active), 0 (no) (inactive)

* NC(CCCC(N)C(=O)c1ccccc1)C(=O)O (stereo unspecified) | 0 (no)
* CC12CCC3C(CCC4CC(O)CCC43C)C1C/C(=C/O)C(=O)O2 (stereo unspecified) | 0 (no)
* COc1ccccc1C(OC(C)=O)OC(C)=O | 0 (no)
* O=C(N/N=C1\SCC(=O)N1c1ccccc1)c1cc(-c2cc3ccccc3o2)nn1-c1ccccc1 | 0 (no)

Any idea what this test logged for COc1cc(NC(C)CCCN2C(=O)c3ccccc3C2=O)c2nc(C)ccc2c1OC (stereo unspecified) ? 0 (no)

Any idea what this test logged for CC[C@@]1(O)C(=O)OCc2c1cc1n(c2=O)Cc2c-1nc1ccccc1c2/C=N/OC(C)(C)C ? 1 (yes)

Any idea what this test logged for CCCC(=O)Oc1ccc(/C(=C(\C)c2ccc(Cl)cc2)c2ccc(OCCN(CC)CC)cc2)cc1 ? 1 (yes)
